target.of.assay: Urokinase-type plasminogen activator (Homo sapiens)
pIC50: −log10 of the molar value.

{"chemical.smiles": "CC(C)(C)C(=O)Oc1ccc(S(=O)(=O)Nc2ccccc2C(=O)NCC(=O)O)cc1", "pIC50": "< 5.70"}

* * *

target.of.assay: Kallikrein-1 (Homo sapiens, UniProt P06870)
Sequence (P06870 whole entry): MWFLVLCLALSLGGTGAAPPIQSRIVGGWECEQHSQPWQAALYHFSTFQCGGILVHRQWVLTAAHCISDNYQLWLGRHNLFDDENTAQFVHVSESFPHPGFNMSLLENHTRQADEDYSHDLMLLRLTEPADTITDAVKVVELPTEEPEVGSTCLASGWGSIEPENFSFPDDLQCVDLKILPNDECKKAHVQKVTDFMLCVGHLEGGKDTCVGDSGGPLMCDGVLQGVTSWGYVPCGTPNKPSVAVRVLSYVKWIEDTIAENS
measured.property: IC50

{"chemical.smiles": "CC(C)(C)C(=O)Oc1coc(CSc2nc3ccccc3s2)cc1=O", "recorded.result": "> 50 µM"}

* * *

target.of.assay: Neutrophil elastase (Homo sapiens, UniProt P08246)
Sequence (P08246 whole entry): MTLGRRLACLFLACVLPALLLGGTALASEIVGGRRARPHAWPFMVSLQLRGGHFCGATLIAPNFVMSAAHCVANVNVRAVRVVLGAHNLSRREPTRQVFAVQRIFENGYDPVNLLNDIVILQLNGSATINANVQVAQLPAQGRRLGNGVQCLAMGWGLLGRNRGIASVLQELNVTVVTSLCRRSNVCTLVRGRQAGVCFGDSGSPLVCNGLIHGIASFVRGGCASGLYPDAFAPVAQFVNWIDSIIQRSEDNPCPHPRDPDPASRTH
test.details: Inhibition of human neutrophil elastase using MeO-Suc-Ala-Ala-Pro-Val-AMC as substrate incubated for 30 mins prior to substrate addition measured for 30 mins by fluorescence assay

{"chemical.smiles": "CC(C)(C)C(=O)Oc1cn(-c2ccccc2)c(CSc2nc3ccccc3s2)cc1=O", "IC50 [nM]": 960}
{"chemical.smiles": "CC(C)(C)C(=O)Oc1coc(CSc2nc3ccccc3s2)cc1=O", "IC50 [nM]": 110}
{"chemical.smiles": "O=C(Oc1cn(-c2ccccc2)c(CSc2nc3ccccc3s2)cc1=O)c1ccccc1", "IC50 [nM]": 280}

* * *

target.of.assay: Cathepsin G (Homo sapiens)
Sequence (P08311 whole entry): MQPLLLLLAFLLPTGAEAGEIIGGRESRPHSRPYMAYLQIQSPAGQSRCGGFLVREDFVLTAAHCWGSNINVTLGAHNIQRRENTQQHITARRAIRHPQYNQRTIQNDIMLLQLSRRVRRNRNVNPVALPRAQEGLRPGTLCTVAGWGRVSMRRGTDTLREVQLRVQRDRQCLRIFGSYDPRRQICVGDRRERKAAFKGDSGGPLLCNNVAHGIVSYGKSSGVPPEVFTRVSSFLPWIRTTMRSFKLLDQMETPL
test.details: Inhibition of human cathepsin G using Suc-Ala-Ala-Pro-Phe-p-nitroanilide as substrate incubated for 30 mins prior to substrate addition measured for 30 mins by spectrophotometry
pIC50: −log10 of the molar value.
measured.property: pIC50

{"chemical.smiles": "CC(C)(C)C(=O)Oc1coc(CSc2nc3ccccc3s2)cc1=O", "measured.property": "pIC50", "recorded.result": "< 4.00"}

* * *

Prothrombin (Homo sapiens, UniProt P00734): reported IC50 for various molecules.

{"chemical.smiles": "CC(C)(C)C(=O)Oc1coc(CSc2nc3ccccc3s2)cc1=O", "target.of.assay": "Prothrombin (Homo sapiens, UniProt P00734)", "IC50": "> 50 µM"}
{"chemical.smiles": "CC(C)(C)C(=O)Oc1ccc(S(=O)(=O)Nc2ccccc2C(=O)NCC(=O)O)cc1", "target.of.assay": "Prothrombin (Homo sapiens, UniProt P00734)", "IC50": "> 2 µM"}
{"chemical.smiles": "CC(C)(C)C(=O)Oc1cn(-c2ccccc2)c(CSc2nc3cc(C(=O)O)ccc3o2)cc1=O", "target.of.assay": "Prothrombin (Homo sapiens, UniProt P00734)", "IC50": "8.4 µM"}

* * *

In this section, each of the compounds is paired with its reported half-life.
test.details: Half life in Sprague-Dawley rat liver microsomes by HPLC analysis
Assay type: ADME
measured.property: half-life (min)

{"chemical.smiles": "CC(C)(C)C(=O)Oc1coc(CSc2nc3ccccc3s2)cc1=O", "unit.name": "min", "reading.qualifier": "<", "recorded.result": 1}
{"chemical.smiles": "CC(C)(C)C(=O)Oc1ccc(S(=O)(=O)Nc2ccccc2C(=O)NCC(=O)O)cc1", "unit.name": "min", "reading.qualifier": "=", "recorded.result": 19.9}

Values were extracted from ChEMBL document CHEMBL3091365.
